- protocolDetails: qHTS Assay for Lipid Storage Modulators (AID 1519)
- experimentalSetup: Drosophila S3 cells, BODIPY lipid droplet/cell ratio, laser cytometry; measured here: cell count channel max response; cells loaded with oleic acid
Results filed as inconclusive are left out.
quantityName: max response (%)

[[record]]
compound = "CC(=O)OC1CC2C(C)(C)C(=O)C=C[C@]2(C)C2CC[C@@]3(C)C(c4ccoc4)OC(=O)C4O[C@@]43[C@]12C (stereo not given in full)"
recordedresult = 11.5

[[record]]
compound = "COc1c(O)cccc1O"
recordedresult = -1.6

[[record]]
compound = "CC(C)c1c(O)ccc2c1CCC1[C@@](C)(CO)CCC[C@@]21C (stereo not given in full)"
recordedresult = 14.4

[[record]]
compound = "C=CCSC[C@@H]1Nc2cc(Cl)c(S(N)(=O)=O)cc2S(=O)(=O)N1"
recordedresult = -24.3

[[record]]
compound = "C/C(=C(/CCO)SSC[C@@H]1CCCO1)N(C=O)Cc1cnc(C)nc1N"
recordedresult = -21

[[record]]
compound = "O=C(O)COCCN1CCN([C@@H](c2ccccc2)c2ccc(Cl)cc2)CC1"
recordedresult = -9.07

[[record]]
compound = "O=c1c(O)c(-c2ccccc2)oc2cccc(O)c12"
recordedresult = 9.77

[[record]]
compound = "O=c1c2ccccc2oc2ccccc12"
recordedresult = 9.44

[[record]]
compound = "CC(=O)OCC(=O)C1CCC2C3CCC4=CC(=O)CC[C@@]4(C)C3CC[C@]12C (stereo not given in full)"
recordedresult = 5.1

[[record]]
compound = "C=C1c2c(Cl)ccc(O)c2C(O)=C2C(=O)[C@@]3(O)C(O)=C(C(N)=O)C(=O)[C@@H](N(C)C)[C@@H]3[C@@H](O)[C@H]12"
recordedresult = -8.18

[[record]]
compound = "C#C[C@]1(O)CCC2C3CCC4=Cc5oncc5C[C@@]4(C)C3CC[C@@]21C (stereo not given in full)"
recordedresult = 9.5

[[record]]
compound = "CCCC1OC2CC3C4CCC5=CC(=O)C=CC5(C)C4C(O)CC3(C)[C@]2(C(=O)CO)O1 (stereo not given in full)"
recordedresult = 24.3

[[record]]
compound = "CC(C)c1ccc2c(c1)CCC1C(C)(C(N)=O)CCCC21C (stereo not given)"
recordedresult = -2.05

[[record]]
compound = "CC(CCC(=O)O)C1CCC2C3CC(O)[C@@H]4CC(O)CC[C@]4(C)C3CC[C@@]12C (stereo not given in full)"
recordedresult = 12.9

[[record]]
compound = "CNC1C(O)C(O)C(CO)O[C@H]1OC1C(O[C@@H]2C(O)C(O)[C@@H](N=C(N)N)C(O)C2N=C(N)N)OC(C)[C@]1(O)C=O (stereo not given in full)"
recordedresult = 10.8

[[record]]
compound = "NC1(C(=O)O)CCCC1"
recordedresult = 7.47

[[record]]
compound = "CCC1OC(=O)C(C)[C@@H](O[C@H]2C[C@@](C)(OC)C(O)C(C)O2)C(C)[C@@H](O[C@@H]2OC(C)CC(N(C)C)C2O)[C@@](C)(O)CC(C)CN(C)C(C)C(O)[C@]1(C)O (stereo not given in full)"
recordedresult = 12.3

[[record]]
compound = "CN(C)c1ccc(-c2nccc(NCc3ccccc3)n2)cc1"
recordedresult = -4.09

[[record]]
compound = "COC(=O)[C@@H]1[C@@H]2C[C@H]3c4[nH]c5cc(OC)ccc5c4CCN3C[C@@H]2C[C@H](OC(=O)c2cc(OC)c(OC)c(OC)c2)[C@H]1OC"
recordedresult = -5.3

[[record]]
compound = "O=C(/C=C/c1ccc(O)cc1)c1ccccc1O"
recordedresult = 5.42

